Values were extracted from BindingDB's records for doi:10.1021/jm000209n.

TEST: Tested in vitro against HIV-1 LAI from MT-4 cells using MTT assay
// reported EC50 per item
ASSAY_ENDPOINT: EC50 (nM)

| CHEMICAL_STRUCTURE | SIGN_QUALIFIER | RECORDED_MEASUREMENT |
| --- | --- | --- |
| C#C[C@]1(CO)O[C@@H](n2ccc(N)nc2=O)C[C@H]1O | = | 4.8 |
| C#C[C@]1(CO)O[C@@H](n2cc(C)c(N)nc2=O)C[C@H]1O | = | 11 |
| C#C[C@]1(CO)O[C@@H](n2cc(F)c(=O)[nH]c2=O)C[C@H]1O | > | 10000 |
| C#C[C@]1(CO)O[C@@H](n2cc(I)c(=O)[nH]c2=O)C[C@H]1O | = | 340 |
| C#C[C@]1(CO)O[C@@H](n2cc(C)c(=O)[nH]c2=O)C[C@H]1O | = | 610 |
| C#C[C@]1(CO)O[C@@H](n2cnc3c(N)nc(N)nc32)C[C@H]1O | = | 0.3 |
| C#C[C@]1(CO)O[C@@H](n2cc(Cl)c(=O)[nH]c2=O)C[C@H]1O | = | 6000 |
| C#C[C@]1(CO)O[C@@H](n2cnc3c(=O)[nH]cnc32)C[C@H]1O | = | 150 |
| C#C[C@]1(CO)O[C@@H](n2cc(F)c(N)nc2=O)C[C@H]1O | = | 30 |
| C#C[C@]1(CO)O[C@@H](n2cc(CC)c(=O)[nH]c2=O)C[C@H]1O | > | 360000 |
